test.summary: yeast display, Sf9 membrane polyspecificity reagent, FACS + sequencing; frameworks hold sequencing errors
quantity.measured: polyreactivity (PSR sort gate)

// solved cases for polyreactivity (PSR sort gate) follow
HVQLVESGGGLVQAGGSLRLTCAAYGINFTDYAMGWYRQDPGKEMELVAAISSGGGSTYYADSVKGRFTISLDYAKNTVYLQMNSLKPEDTAVYYCAAEGYLISGAGDYMYDYYWGQGTQVTVSS ... high polyreactivity
QVQLVESGGGLVQAGGSLRLSCAASGSTFAYYAMGWYRKAPGKERELVAAISSGGSTYYADSVKGRFTISRDNAKNTVYLQMNSLKPEDTAVYYCNKLWVGKFKRYEFGYWGQGTQVTVSS ... low polyreactivity
QVQLVESGGGLDQAGGSLRLSCAASGLTFKWYAMGWYRQAPGKERELVAAIRTSAGSTYYADSVKGRFTISRDNAKNTVYLQMNSLKPEDTAVYYCNAVGYVFRYVYQYDYWGQCTQVTVSS ... low polyreactivity
QVQLVESGGGLVQAGGSLRLSCAASGRTFSANTMGWYRQAPGKERELVAAISKSGGSTYYADSVKGRFTISRDNAKNTVYLQMNSLKPEDTAVYYCAAARNVYRGRVYWGRYDYWGQGTQVTVSS ... high polyreactivity

(Q) Which measured polyreactivity (PSR sort gate) value corresponds to `QVQLVETGGGLVQAGGSLRLSCAASGPFYPYYAMGSYRQAPGKERELVATISTAGSTNYADSVKGRFTISRDNATNTVYLQMNSLIPEDTAVYYCATRNTWYHRGYDYWGQGTQVPVSS` ?
(A) low polyreactivity
